Test system: Lolium perenne (LOLPE)
experimental protocol: Test Example 1 pre-emergence herbicidal activity
Type: in vivo
assay conditions: Lolium perenne, 480 h, rate 250 g/ha, evaluated 20 days later, read-out: Pre-emergence activity LOLPE (100=total damage to plant; 0=no damage to plant)
observation type: pest or weed control at 250 g/ha (%)
Numeric answer only, unit % assumed.

Look over these answered cases.
[[record]]
compound = "CSC[C@]12C=C[C@H](O1)[C@@H]1C(=O)C(c3c(C)cc(C)cc3C)=C(O)[C@@H]12 (racemic)"
scale_unit = "%"
reading = 20

[[record]]
compound = "CCc1cc(C)cc(CC)c1C1=C(O)[C@@H]2[C@@H]3O[C@@H](C[C@H]3c3ccc(C)cc3Cl)[C@@H]2C1=O"
scale_unit = "%"
reading = 70

[[record]]
compound = "CSC1=C[C@@H]2O[C@@]1(C)[C@@H]1C(O)=C(c3c(C)cc(C)cc3C)C(=O)[C@H]21 (racemic)"
scale_unit = "%"
reading = 10

[[record]]
compound = "CCc1cc(C)cc(CC)c1C1=C(O)[C@@H]2[C@@H]3O[C@@H](C[C@H]3c3cc(OC)c(OC)c(OC)c3)[C@@H]2C1=O (racemic)"
scale_unit = "%"
reading = 80

[[record]]
compound = "Cc1cc(C)c(C2=C(O)[C@@H]3[C@@H]4O[C@@H](C[C@H]4c4ccc(F)cc4)[C@@H]3C2=O)c(C)c1 (racemic)"
scale_unit = "%"
reading = 100

[[record]]
compound = "Cc1cc(C)c(C2=C(O)[C@@H]3[C@@H]4O[C@@H](C[C@H]4c4ccc(C(F)(F)F)nc4)[C@@H]3C2=O)c(C)c1 (racemic)"
scale_unit = "%"
reading = 90


Task item: Data request, read-out pest or weed control at 250 g/ha, for CCc1cc(C)cc(CC)c1C1=C(O)[C@@H]2[C@@H]3O[C@@H](C[C@H]3c3ccccc3F)[C@@H]2C1=O (racemic)
Reply: 90

Task item: Data request, read-out pest or weed control at 250 g/ha, for CCOCOC[C@]12CC[C@H](O1)[C@@H]1C(=O)C(c3c(CC)cc(C)cc3CC)=C(O)[C@@H]12
Reply: 100

Task item: Data request, read-out pest or weed control at 250 g/ha, for Cc1cc(C)c(C2=C(OC(=O)C3CC3)[C@H]3[C@@H](C2=O)[C@@H]2CC[C@H]3O2)c(C)c1 (racemic)
Reply: 100

Task item: Data request, read-out pest or weed control at 250 g/ha, for CC#CCOC(=O)OC1=C(c2c(CC)cc(C)cc2CC)C(=O)[C@@H]2[C@H]1[C@H]1CC[C@@H]2O1 (racemic)
Reply: 90

Task item: Data request, read-out pest or weed control at 250 g/ha, for CCc1cc(C)cc(CC)c1C1=C(O)[C@@H]2[C@@H]3O[C@@H](C[C@H]3c3ccc(F)cc3)[C@@H]2C1=O
Reply: 100

Task item: Data request, read-out pest or weed control at 250 g/ha, for CCc1nc2ccccc2nc1[C@@H]1C[C@@H]2O[C@H]1[C@H]1C(O)=C(c3c(C)cc(C)cc3C)C(=O)[C@H]12
Reply: 20

Task item: Data request, read-out pest or weed control at 250 g/ha, for C#CCOC(=O)OC1=C(c2c(CC)cc(C)cc2CC)C(=O)[C@@H]2[C@H]1[C@H]1CC[C@@H]2O1 (racemic)
Reply: 100

----------
Test system: Echinochloa crus-galli (ECHCG)
experimental protocol: Test Example 1 pre-emergence herbicidal activity
Assay type: in vivo
assay conditions: Echinochloa crus-galli, 480 h, rate 250 g/ha, evaluated 20 days later, read-out: Pre-emergence activity ECHCG (100=total damage to plant; 0=no damage to plant)
Parameter: pest or weed control at 250 g/ha. Scope: all listed entries.
Numeric answer only, unit % assumed.

Look over these answered cases.
[[record]]
compound = "Cc1cc(C)c(C2=C(O)[C@@H]3[C@@H]4O[C@@H](C[C@H]4c4ncc(C(F)(F)F)cc4C(F)(F)F)[C@@H]3C2=O)c(C)c1"
scale_unit = "%"
reading = 90

[[record]]
compound = "Cc1cc(C)c(C2=C(O)[C@@H]3[C@@H]4O[C@@H](C[C@@H]4C)[C@@H]3C2=O)c(C)c1"
scale_unit = "%"
reading = 100


Task item: Form: Entry = Cc1cc(C)c(C2=C(O)[C@H]3[C@@H](C2=O)[C@@H]2C=C(CO)[C@@]3(C)O2)c(C)c1 | System = Echinochloa crus-galli (ECHCG) | pest or weed control at 250 g/ha = ____
Reply: 60

Task item: Form: Entry = Cc1cc(C)c(C2=C(O)[C@@H]3[C@@H]4O[C@@H](C[C@H]4c4ccc(C(F)(F)F)cc4)[C@@H]3C2=O)c(C)c1 | System = Echinochloa crus-galli (ECHCG) | pest or weed control at 250 g/ha = ____
Reply: 90

Task item: Form: Entry = Cc1cc(C)c(C2=C(OC(=O)C(C)C)[C@H]3[C@@H](C2=O)[C@@H]2CC[C@H]3O2)c(C)c1 | System = Echinochloa crus-galli (ECHCG) | pest or weed control at 250 g/ha = ____
Reply: 100

Task item: Form: Entry = CC1=C[C@@H]2O[C@H]1[C@H]1C(O)=C(c3c(C)cc(C)cc3C)C(=O)[C@H]12 (racemic) | System = Echinochloa crus-galli (ECHCG) | pest or weed control at 250 g/ha = ____
Reply: 70

----------
Parameter: pest or weed control at 250 g/ha. Scope: all listed entries.
Test system: Echinochloa crus-galli (ECHCG)
experimental protocol: Test Example 1 pre-emergence herbicidal activity
Assay type: in vivo
assay conditions: Echinochloa crus-galli, 480 h, rate 250 g/ha, evaluated 20 days later, read-out: Pre-emergence activity ECHCG (100=total damage to plant; 0=no damage to plant)
Numeric answer only, unit % assumed.

Look over these answered cases.
[[record]]
molecule = "CCC1=NOC2C1[C@@H]1O[C@H]2[C@H]2C(O)=C(c3c(CC)cc(C)cc3CC)C(=O)[C@H]21 (stereo partly drawn)"
reading = 80

[[record]]
molecule = "CCc1cc(C)cc(CC)c1C1=C(O)[C@H]2[C@@H](C1=O)[C@@H]1C=C(C#C[Si](C)(C)C)[C@H]2O1 (racemic)"
reading = 30

[[record]]
molecule = "Cc1cc(C)c(C2=C(O)[C@H]3[C@@H](C2=O)[C@@H]2CC[C@@]3(C)O2)c(C)c1 (racemic)"
reading = 100


Task item: Data request, read-out pest or weed control at 250 g/ha, for CCc1cc(C)cc(CC)c1C1=C(O)[C@H]2[C@@H](C1=O)[C@@H]1CC[C@@]2(CO)O1
Reply: 90

Task item: Data request, read-out pest or weed control at 250 g/ha, for C=CCC(=O)OC1=C(c2c(CC)cc(C)cc2CC)C(=O)[C@@H]2[C@H]1[C@H]1CC[C@@H]2O1
Reply: 100

Task item: Data request, read-out pest or weed control at 250 g/ha, for CCc1cc(C)cc(CC)c1C1=C(O)[C@@H]2[C@@H]3O[C@@H](C[C@H]3c3cccc(C(C)=O)c3)[C@@H]2C1=O (racemic)
Reply: 0

----------
System: Avena fatua (AVEFA)
experimental protocol: Test Example 1 post-emergence herbicidal activity
Format: in vivo
assay conditions: 360 h, rate 125 g/ha, evaluated 15 days later, read-out: Post-emergence activity AVEFA (100=total damage to plant; 0=no damage to plant)
observation type: pest or weed control at 125 g/ha (%)
Numeric answer only, unit % assumed.

Look over these answered cases.
[[record]]
molecule = "CCOC(=O)C1=NOC2C1[C@@H]1O[C@H]2[C@H]2C(O)=C(c3c(CC)cc(C)cc3CC)C(=O)[C@H]21 (mixture of isomers)"
reading = 20

[[record]]
molecule = "C#CC1=C[C@@H]2O[C@H]1[C@H]1C(O)=C(c3c(CC)cc(C)cc3CC)C(=O)[C@H]12"
reading = 50


// next entry
Task item: Data request, read-out pest or weed control at 125 g/ha, for CCc1cc(C)cc(CC)c1C1=C(OC(=O)C2CCCCC2)[C@H]2[C@@H](C1=O)[C@@H]1CC[C@H]2O1 (racemic)
Reply: 90

----------
Test system: Alopecurus myosuroides (ALOMY)
experimental protocol: Test Example 1 post-emergence herbicidal activity
Type: in vivo
assay conditions: 360 h, rate 125 g/ha, evaluated 15 days later, read-out: Post-emergence activity ALOMY (100=total damage to plant; 0=no damage to plant)
Method: Monocotyledonous and dicotyledonous test plants were sown in standard soil in pots. […] The test plants were then grown in a greenhouse under optimum conditions until, 15 days later for post-emergence and 20 days for pre-emergence, the test was evaluated (100=total damage to plant; 0=no damage to plant). […]
Tag: Criterion met if measured pest or weed control at 125 g/ha is not below 90%, Criterion not met if it is.

[[record]]
molecule = "CC[C@H]1C[C@@H]2O[C@H]1[C@H]1C(O)=C(c3c(C)cc(C)cc3C)C(=O)[C@H]12"
class_name = "Criterion met"


Please turn your attention to the following entry.
Task item: Entry C#CCOC(=O)OC1=C(c2c(C)cc(C)cc2C)C(=O)[C@@H]2[C@H]1[C@H]1CC[C@@H]2O1 (racemic) : is its pest or weed control at 125 g/ha no less than 90%?
Reply: Criterion met
